Reported values of growth inhibition for individual entries
Test: inhibition of 3D7 malaria parasite growth – strain 3D7 (AID 2306);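 further: 0% = DMSO wells and 100% = chloroquine plus artemisinin control wells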
Details: P. falciparum 3D7 erythrocytic growth, LDH absorbance, 72 h; at 2 µM; active compounds read high
PROPERTY NAME: growth inhibition (%)

COMPOUND	QUANTITATIVE RESULT
CN(c1ccc(NC(=O)Nc2cccc(Cl)c2)cc1)c1ccnc(N)n1	100
CCOC(=O)C(C)(C)Oc1ccc(CN(Cc2ccc(CC(C)C)cc2)C(=O)Nc2ccc(F)cc2F)c(OC)c1	97
CCCN1CCN(CC(O)CNC(=O)Nc2ccc(Cl)cc2)CC1 (stereo not drawn)	100
N#Cc1cc(N(CCCOc2cccc(OC(F)(F)F)c2)Cc2ccccc2C(F)(F)F)ccc1C(F)(F)F	94
Cc1c(Cl)cccc1S(=O)(=O)N1CCCCC(c2ccc(C(F)(F)F)cc2)=N1	86
O=C1[C@H]2C(c3ccc(Cl)c(Cl)c3)N3CC(OCc4ccccc4)CC3(C(=O)O)[C@H]2C(=O)N1c1ccc(Br)cc1 (stereo partly drawn)	104
N#Cc1ccc(C(=O)Nc2cc(-c3cccc(O)c3)cc3[nH]ncc23)cc1	90
CC(=O)Nc1ccc(OCCCCCOc2ccc(NC(C)=O)cc2Cl)c(Cl)c1	93
CCOC(=O)c1cn(CC)c2cc(N3CCCCCC3)c(F)cc2c1=O	94
O=C(Nc1cccc(-c2nn3ccccc3c2-c2ccnc(Nc3ccc(Cc4ccncc4)cc3)n2)c1)c1c(F)cccc1F	97
COc1ccc(C(=O)NCC(C)(C)c2nc(-c3ccc(Cl)c(O)c3)c(-c3ccncc3)[nH]2)cc1OCCN(C(C)C)C(C)C	102
CN(CCc1ccccc1)c1ncc(-c2ccccc2CNCc2ccccc2O)cn1	99
CCOc1ccc2nc(NC(=O)c3csnn3)sc2c1	100
CN1CCOc2ccc(Nc3nnc(-c4cccc(-c5cccnc5)c4)o3)cc2C1	100
CC(CO)(CO)NCc1cc2ccc3ccsc3c2c2ccccc12	96
CC(C)(C(=O)NCCC1CCN(CCCCCNC(=O)/C=C/c2ccc(Cl)c(Cl)c2)CC1)c1ccc(Cl)cc1	89
CCc1ccc(Cc2cnc3nc(N)nc(N)c3c2C)cc1	97
COc1ccc(-c2cc(C(F)(F)F)n3ncc(C(=O)Nc4cc(C)ccc4O)c3n2)cc1OC	100
Cc1ccc(C(=O)N2CCN(Cc3nccs3)CC2)cc1	86
Cc1nc(-c2cccc(Nc3nccc(NCC(O)c4ccccc4C)n3)c2)cs1 (stereo not drawn)	92
CCCCN1CC[C@@H](CCC(O)c2cc(OCCC)nc3ccc(OC)cc23)[C@@H](CC)C1 (stereo partly drawn)	100
c1cc(CNC2CCN(CC3CCCCC3)CC2)cc(-n2ccnc2)c1	102
CCOC(=O)c1c(C)n(-c2ccc(Cl)cc2)c2ccc(OC(=O)C=Cc3ccccc3)cc12	99
COc1ccc(C2CCN(CCN3CCC(NC(=O)c4ccc(-c5cccc(C(F)(F)F)c5C(F)(F)F)cc4)CC3)CC2)c(OC)c1	102
CCCCOc1cc(C)nc2ccc(NC(=O)COCC(=O)Nc3ccc4nc(C)cc(OCCCC)c4c3)cc12	90
N#Cc1cccc(C(=O)N2CCOC(CCN3CCC(c4ccccc4)CC3)(c3ccc(Cl)c(Cl)c3)C2)c1 (stereo not drawn)	87
CC(C)(CNC(=O)[C@H]1CCCN1)c1nc(-c2ccc(Cl)c(O)c2)c(-c2ccncc2)[nH]1	86
O=S(=O)(NCCN1CCCC1)c1cccc(-c2cccc(CNCCc3cccs3)c2)c1	102
S=C(Nc1ccc(Cl)cc1)Nc1ccc(Nc2ccccc2)cc1	84
COc1ccc(Cl)cc1N1CCN(CCCNC(=O)c2ccc(-c3nc4ccncc4[nH]3)c(Br)c2)CC1	86
CCOC(=O)c1c(NC(=O)c2ccccc2)sc2c(O)c(CNC3CCCCC3)ccc12	99
CCCc1ccc(Cc2cnc3nc(N)nc(N)c3c2C)cc1	98
CC(C)CC1(C(=O)OC(C)(C)C)CC(C(=O)OC(C)(C)C)C(c2cccs2)N1C(=O)c1ccc(C(C)(C)C)cc1 (stereo not drawn)	101
O=C(Nc1ccc(-c2nc3ccccc3[nH]2)cc1)c1ccc(N2CCCC2)c([N+](=O)[O-])c1	100
FC(F)(F)c1ccc2nc(-c3cccc(-c4cccc(CNCc5cnn(-c6ccccc6)n5)c4)c3)[nH]c2c1	100
O=C(Nc1c(F)cccc1F)c1cccc(-c2nn3ccccc3c2-c2ccnc(Nc3cccc(-c4cnco4)c3)n2)c1	95
Cc1ccc(Nc2c3ccccc3nc3ccc(C)cc23)cc1	88
O=c1cc(NCCCNC2CCCc3c2cc(Cl)c(Cl)c3Cl)[nH]c2ccccc12 (stereo not drawn)	100

###

Test system: Neuropilin-2 / VEGF-C interaction (human)
Assay: inhibitors of NRP2–VEGF-C binding, biochemical, microplate binding format, z-score (AID 743281)
Details: microplate NRP2/VEGF-C binding assay; active compounds read low
Non-standard residues stand in square brackets, D forms with d. Residues, ends and D or L forms follow the SMILES beside them. pGlu = O=C1CC[C@@H](C(=O)O)N1; Thz = O=C(O)[C@@H]1CSCN1
# note: boundary value -0.4 maps to f; z-score below it maps to t

COMPOUND	CLASS LABEL
COc1cc(CNC(=O)CCCC/C=C\C(C)C)ccc1O	f
O=C1CC[C@@H](C(=O)N2CSC[C@H]2C(=O)O)N1 ([pGlu]-[Thz]-OH)	f
CCC(C)n1ncn(-c2ccc(N3CCN(c4ccc(OCC5COC(Cn6cncn6)(c6ccc(Cl)cc6Cl)O5)cc4)CC3)cc2)c1=O (stereo unspecified)	f
Cc1c(O)c(=O)ccn1C	t
O=c1[nH]c(=O)n(C2CCCO2)cc1F (stereo unspecified)	t
CC(=O)NC[C@H]1CN(c2ccc(N3CCOCC3)c(F)c2)C(=O)O1	f
CN(C)CC/C=C1/c2ccccc2COc2ccccc21	f
COc1nc(C)nc(Cl)c1NC1=NCCN1	t
CS(=O)(=O)c1ccc(-c2cc(Br)sc2-c2ccc(F)cc2)cc1	t
CN/C(=C\[N+](=O)[O-])NCCSCc1csc(CN(C)C)n1	f
CC(C)N=c1cc2n(-c3ccc(Cl)cc3)c3ccccc3nc-2cc1Nc1ccc(Cl)cc1	f
CN1[C@@H]2CCC[C@H]1CC(NC(=O)c1nn(C)c3ccccc13)C2 (stereo partly specified)	f
O=C(OC1C[C@@H]2CC3C[C@H](C1)N2CC3=O)c1c[nH]c2ccccc12 (stereo partly specified)	f
CC(=O)[C@@]1(O)CC[C@H]2[C@@H]3C[C@H](C)C4=CC(=O)CC[C@]4(C)[C@H]3CC[C@@]21C	f
COc1cc(N)c(Cl)cc1C(=O)N[C@@H]1CCN(CCCOc2ccc(F)cc2)C[C@@H]1OC	t
CNC(=O)Oc1ccc2c(c1)[C@]1(C)CCN(C)C1N2C (stereo partly specified)	f
CCCCC[C@H](O)/C=C/[C@H]1[C@H](O)CC(=O)[C@@H]1CCCCCCC(=O)O	t
OC[C@H]1O[C@@H](n2cnc3c(NC4CCCC4)nc(Cl)nc32)[C@@H](O)C1O (stereo partly specified)	t
COc1c(N2C[C@@H]3CCCN[C@@H]3C2)c(F)cc2c(=O)c(C(=O)O)cn(C3CC3)c12	t
O=C(O)COCCN1CCN([C@H](c2ccccc2)c2ccc(Cl)cc2)CC1	t

###

Experiment: HepG2 cytotoxicity, primary screen, cytotoxicity control for P. falciparum antimalarial project, cell-based, ATP luminescence (AID 2303);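 further: 0% = DMSO wells and 100% = digitonin-killed cells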
Settings: HepG2 viability, 24-48 h, at 10 µM, active compounds read high
Overview of recorded inhibition for various molecules

MOLECULE	inhibition, %
Cc1cccc2[nH]c(-c3cccc(-c4cccc(NC(=O)c5ccc(C(N)=O)cc5)c4)c3)nc12	25
OC1CCC(Nc2ccc3ncc(-c4ccc(Cl)cc4)n3n2)CC1 (stereo not given)	57
CC(Sc1n[nH]c(-c2ccccc2Br)n1)C(=O)Nc1ccc(F)cc1 (stereo not given)	-7
Oc1ccc(CCNc2nc(NCc3cccc(-c4cc(C(F)(F)F)ccc4Cl)c3)nc(N3CCNCC3)n2)cc1	33
COc1cc2nc(N3CCC(CNC(=O)c4ccc(-c5ccc(-c6noc(C)n6)cc5)cc4)CC3)nc(N)c2cc1OC	96
Cc1ccc(O)cc1Nc1ccnc2cc(-c3ccncc3)ccc12	16
O=C(/C=C/c1c(Cl)cccc1Cl)NC1CCC(CN2CCC(Cc3cc4ccccc4[nH]3)CC2)CC1 (stereo not given)	97
COc1ccc(CCN2CC[C@H](CNc3nc(-c4ccccc4)nc4ccccc34)C2)cc1S(N)(=O)=O	54
O=c1cc(NCCCNCc2cccc(OC(F)(F)F)c2)[nH]c2ccccc12	-4
O=C(Nc1cccc(OC2CCN(Cc3ccccc3)CC2)c1)c1ccc(Cl)c(Cl)c1	16
Fc1ccc2nc(-c3ccc(-c4cccc(CN5CCC(CCN6CCCCC6)CC5)c4)cc3)[nH]c2c1	96
Nc1ncc(-c2ccc3nccc(-c4ccncc4)c3c2)cc1S(=O)(=O)N1CCCCC1	25
CS(=O)(=O)CCNC(=O)c1ccc(-c2cc3c(Nc4ccc5c(cnn5Cc5ccccc5)c4)ncnc3cn2)o1	6
COc1ccc2c(NN=Cc3c(OC)ccc4ccccc34)cc(C)nc2c1	7
Cc1nc(NCc2ccccc2)cc(NCC(O)c2ccc(O)cc2)n1 (stereo not given)	5
COc1ccccc1-c1csc(C(=O)NCC2CCN(Cc3ccc(C(C)(C)C)cc3)C2)c1 (stereo not given)	29
CCn1c(-c2nc(-c3ccnc(N4CCN(C)CC4)c3)cnc2N)nc2cc(S(C)(=O)=O)ccc21	44
COc1ccc(-c2ccc(NC(=O)c3cccc(Cl)c3)cc2)cc1CN1CCCN(C)CC1	48
CC(C)NCc1ccc(-c2ccc(NC(=O)c3cccc(C#N)c3)cc2)cc1	40
CC(C)(C)c1cc(Cl)cc(C(=O)Nc2cc([N+](=O)[O-])ccc2Cl)c1O	79
